Taken from the RepoRT retention time repository.

assay explanation: HILIC, Waters ACQUITY UPLC BEH HILIC, 150 × 2.1 mm, 1.7 µm, 40 °C, 0.6 mL/min, estimated dead time 0.55 min; A: water + 0.1% formic acid + 20 mM ammonium formate, pH 3.5; B: acetonitrile + 0.1% formic acid, pH 3; gradient (min/%B) 0/95 0.1/95 4.6/80 5.5/50 7.0/50 7.1/95 7.2/95 7.3/95 7.4/95 7.5/95 7.6/95 7.7/95 7.8/95 12.50/95 12.65/95
measurement setup: stereoisomer not certain
measured attribute: LC retention time (min)

Field: example entries. Status: answers known.
- Nc1nc2nc[nH]c2c(=O)[nH]1 [Guanine]: 2.17
- CC(CCC(=O)NCC(=O)O)C1CCC2C3C(O)CC4CC(O)CCC4(C)C3CCC12C (stereo not given) [Glycoursodeoxycholic acid]: 1.85
- Cn1cnc2c(ncn2C2OC(CO)C(O)C2O)c1=N (stereo not given) [1-Methyladenosine]: 4.1

P. C[N+](C)(C)CCCCC(N)C(=O)[O-] [N6,N6,N6-Trimethyl-L-lysine]
Q. NC(=O)c1cccnc1 [Niacinamide]
Qu. Hey, which is lower on measured LC retention time, P or Q ? // respond with label for picked entry
Ans. Q
(Q: 1.07 min, P: 6.16 min)

P. CN1CCCC1C(=O)O (stereo not given) [N-methylproline]
Q. OCC1OC(OC2(CO)OC(CO)C(O)C2O)C(O)C(O)C1O (stereo not given) [Sucrose]
Qu. Hey, which is lower on measured LC retention time, P or Q ? // respond with label for picked entry
Ans. Q
(Q: 2.27 min, P: 4.48 min)

P. NC(CCCCn1c(C=O)ccc1CO)C(=O)O (stereo not given) [Pyralline]
Q. CC(=O)NCCCN1CCCC1=O [N-Acetylisoputreanine-gamma-lactam]
R. Nc1c(O)cccc1C(=O)O [3-Hydroxyanthranilic acid]
Qu. Rank order required: LC retention time, descending. Use the labels to give the ranking in the order requested.
Ans. P, Q, R
(P: 4.28 min, Q: 1.83 min, R: 0.69 min)

P. Cc1ncc(C[n+]2csc(CCO)c2C)c(N)n1 [Thiamine]
Q. CCCCCCCCCCCCCCCC(=O)OC(CC(=O)[O-])C[N+](C)(C)C (stereo not given) [Palmitoylcarnitine CAR(C16:0)]
Qu. When their LC retention time values are compared, which is larger, P or Q ? // respond with label for picked entry
Ans. P

P. O=C(O)CNC(=O)c1ccccc1 [Hippuric acid]
Q. C[N+](C)(C)CCO [Choline]
R. NC(=O)NCCCC(N)C(=O)O (stereo not given) [Citrulline]
Qu. Order the entries by their reported LC retention time, beginning at the minimum. Use the labels to give the ranking in the order requested.
Ans. P, Q, R

1. C[n+]1ccccc1 [N-Methylpyridinium]
2. O=c1[nH]c(=O)c2[nH]cnc2[nH]1 [Xanthine]
3. C[S+](CCC(N)C(=O)O)CC1OC(n2cnc3c(N)ncnc32)C(O)C1O (stereo not given) [S-Adenosylmethionine]
Qu. Order the entries by their reported LC retention time, beginning at the minimum. Use the labels to give the ranking in the order requested.
Ans. 2, 1, 3

A. C[N+](C)(C)CC(CC(=O)[O-])OC(=O)CCCC(=O)O (stereo not given) [Glutarylcarnitine CAR(5:0-DC)]
B. CC(CCC(=O)NCC(=O)O)C1CCC2C3C(O)CC4CC(O)CCC4(C)C3CC(O)C12C (stereo not given) [Glycocholic Acid]
C. Cn1c(N)nc2c(ncn2C2OC(CO)C(O)C2O)c1=O (stereo not given) [1-Methylguanosine]
D. C=CC1=C(C)C(C=c2[nH]c(=Cc3[nH]c(C=C4NC(=O)C(C)=C4C=C)c(C)c3CCC(=O)O)c(CCC(=O)O)c2C)=NC1=O [Biliverdin]
Qu. Order the entries by their reported LC retention time, beginning at the minimum. Use the labels to give the ranking in the order requested.
Ans. D, C, B, A

a. C[N+](C)(C)CCCC(=O)[O-] [4-Trimethylammoniobutanoic acid (deoxycarnitine)]
b. Nc1ncnc2c1ncn2C1OC(CO)C(O)C1O (stereo not given) [Adenosine]
Qu. Hey, which is lower on measured LC retention time, a or b ? // respond with label for picked entry
Ans. b
(b: 1.75 min, a: 4.91 min)
